These measurements were taken from ChEMBL document CHEMBL2429751.

test system: Vero; assay: Cytotoxicity against African green monkey Vero cells after 48 hrs by Reed-Muench analysis; type: cell-based; parameters: unit not given here; conditions: chlorocebus sabaeus
Please go through the items and note down their TC50.

q: Given the molecule C[C@@H]1CC[C@@]23O[C@@]4(O)C[C@@]12[C@@H](O)C(=O)OC[C@@]3(CO)[C@@]4(C)O , write its reported TC50.
a: 200

q: Given the molecule C[C@](O)(CO)c1ccc2c(c1)CC[C@H]1[C@@](C)(C(=O)O)CCC[C@]21C , write its reported TC50.
a: 138.7

q: Given the molecule CC1=C(C(=O)O[C@@]23OC[C@]4(C)[C@@]5(O)CC[C@@H](C)[C@@]5(CC(=O)[C@]24C)[C@H]3O)CCC1=O , write its reported TC50.
a: 200

q: Given the molecule C[C@H](CO)c1ccc2c(c1)CC[C@H]1[C@@](C)(C(=O)O)CCC[C@]21C , write its reported TC50.
a: 138.7

q: Given the molecule C[C@@H](CO)c1ccc2c(c1)CC[C@H]1[C@@](C)(C(=O)O)CCC[C@]21C , write its reported TC50.
a: 66.7

q: Given the molecule C[C@@]12COC(=O)[C@]1(C)[C@@H](O)[C@@]13CC(=O)O[C@@]21CC=C3CO[C@@H]1O[C@H](CO)[C@@H](O)[C@H](O)[C@H]1O , write its reported TC50.
a: 200

----------
tested on: Coxsackievirus B3; assay: Selectivity index, ratio of TC50 for African green monkey Vero cells to IC50 for Coxsackievirus B3; format: toxicity, cell-based; settings: read-out: Selectivity Index
Value type: selectivity ratio

q: Param request: selectivity ratio | system Coxsackievirus B3 | item CC(C)(O)c1ccc2c(c1)C(=O)C[C@H]1[C@@](C)(C(=O)O)CCC[C@]21C
a: 3.9

q: Param request: selectivity ratio | system Coxsackievirus B3 | item CC(C)c1ccc2c(c1)CC[C@H]1[C@@](C)(C(=O)O)CCC[C@]21C
a: 6.7

q: Param request: selectivity ratio | system Coxsackievirus B3 | item C[C@@H](CO)c1ccc2c(c1)CC[C@H]1[C@@](C)(C(=O)O)CCC[C@]21C
a: 5.2

q: Param request: selectivity ratio | system Coxsackievirus B3 | item C[C@@]12COC(=O)[C@]1(C)[C@@H](O)[C@@]13CC(=O)O[C@@]21CC=C3CO[C@@H]1O[C@H](CO)[C@@H](O)[C@H](O)[C@H]1O
a: 3.9

q: Param request: selectivity ratio | system Coxsackievirus B3 | item CC1=C(C(=O)O[C@@]23OC[C@]4(C)[C@@]5(O)CC[C@@H](C)[C@@]5(CC(=O)[C@]24C)[C@H]3O)CCC1=O
a: 3

q: Param request: selectivity ratio | system Coxsackievirus B3 | item C[C@H](CO)c1ccc2c(c1)CC[C@H]1[C@@](C)(C(=O)O)CCC[C@]21C
a: 8

q: Param request: selectivity ratio | system Coxsackievirus B3 | item C[C@](O)(CO)c1ccc2c(c1)CC[C@H]1[C@@](C)(C(=O)O)CCC[C@]21C
a: 6.2

q: Param request: selectivity ratio | system Coxsackievirus B3 | item C[C@@H]1CC[C@@]23O[C@@]4(O)C[C@@]12[C@@H](O)C(=O)OC[C@@]3(CO)[C@@]4(C)O
a: 3
